assayConditions: 323.15 K; 3000 kPa; Liquid
propertyMeasured: mass density (kg/m3)
Answers are plain numbers, in kg/m3.

As a guide, the following entries are already answered.
compound	numericValue
CCCOC(C)=O [propyl ethanoate]	856.9
CCCCCOC(C)=O [pentyl ethanoate]	849.6
CCOC(C)=O [ethyl acetate]	866.2

Turning now to a further compound:
Kindly indicate its recorded mass density. Item: CCCCOC(C)=O [butyl ethanoate]
853

====

Give measured mass density for each item. Keep answers brief.
assayConditions: 328.15 K; 10000 kPa; Liquid
± gives the expanded uncertainty stated by the source.
Field: value (include unit after the number)

As a guide, the following entries are already answered.
molecule	mass density
CCCCOC(C)=O [butyl ethanoate]	854.6 ± 4.3 kg/m3
CCCCCOC(C)=O [pentyl ethanoate]	851.6 ± 4.5 kg/m3
CCCOC(C)=O [propyl ethanoate]	859 ± 4.5 kg/m3

Turning now to a further molecule:
Kindly indicate its recorded mass density. Item: CCOC(C)=O [ethyl acetate]
868.4 ± 4.3 kg/m3
